normalized growth overview
assay protocol: chemical genetic growth profiling, strain panel (AID 1159580);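 further: tested at 20 µM; growth read once vehicle control cultures reached saturation at 30 °C; 1 = growth at the plate median or of vehicle wells; lower values mean less growth of the strain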
condition: S. cerevisiae deletion strains, growth OD, locus YJL128C, strain PBS2, hits give low values
About 2,000 (36%) of roughly 5,500 compounds were called active. Another 18% or so got no clear call; they are omitted. Some of the results follow.
Give the figure only, with no unit attached.

chemical string	measured attribute	quantitative readout
Cc1ccc(NNC(=O)c2c(C)noc2C)cc1Cl	normalized growth	0.979

Consider FC(F)(F)c1ccnc(N2CCCN(C(=S)Nc3ccc(Cl)cc3Cl)CC2)n1 . Its measured normalized growth is 0.978

Consider Cc1c(C(=S)Nc2ccccc2)sc2ccccc12 . Its measured normalized growth is 0.95

Consider N#CC(C#N)=Cc1ccc(-c2ccccc2C(F)(F)F)o1 . Its measured normalized growth is 0.866

Consider CC(C)(C)c1ccc(C(=O)Nc2ccc(C(F)(F)F)cc2)s1 . Its measured normalized growth is 0.943

Consider COC(=O)c1sccc1-c1ccc(/C=C/[N+](=O)[O-])o1 . Its measured normalized growth is 0.907

Consider CCCCCCCCCCCC(=O)NOC(=O)c1c(-c2c(Cl)cccc2Cl)noc1C . Its measured normalized growth is 1

Consider Cc1ccc(NC(=O)c2ccccc2N=Cc2cc(Cl)cc(Cl)c2O)c(N=Cc2cc(Cl)cc(Cl)c2O)c1 . Its measured normalized growth is 0.885

Consider Cc1onc(-c2c(Cl)cccc2Cl)c1C(=O)NNc1c(Cl)cccc1Cl . Its measured normalized growth is 0.923

====

assay protocol: chemical genetic growth profiling, strain panel (AID 1159580);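 further: tested at 20 µM; growth read once vehicle control cultures reached saturation at 30 °C; 1 = growth at the plate median or of vehicle wells; lower values mean less growth of the strain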
condition: S. cerevisiae deletion strains, growth OD, locus YLR320W, strain mms22, hits give low values
Among all 5,500 compounds or so, about 2,000 (36%) were called active. Inconclusive results (about 18%) are left out. Some of the results follow.
measured attribute: normalized growth
Give the figure only, with no unit attached.

compound	normalized growth
C=CCSCC1Nc2cc(Cl)c(S(N)(=O)=O)cc2S(=O)(=O)N1 (stereo unspecified)	0.985

Consider Cc1ccc(Cl)c(Nc2ccccc2C(=O)O)c1Cl . Its measured normalized growth is 0.659

Consider C=C1C(=O)O[C@@H]2C3O[C@]3(C)CC/C=C(\C)CC[C@@H]12 (stereo partly specified) . Its measured normalized growth is 0.893

Consider Cc1cccc(Nc2ccccc2C(=O)O)c1C . Its measured normalized growth is 0.894

Consider CC1(C)O[C@H]2[C@H](O)C[C@](O)(C(N)=O)C[C@H]2O1 . Its measured normalized growth is 1.03

Consider CCN(CC)C(=O)c1cccc(C)c1 . Its measured normalized growth is 1.04

====

normalized growth overview
assay protocol: chemical genetic growth profiling, strain panel (AID 1159580);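 further: tested at 20 µM; growth read once vehicle control cultures reached saturation at 30 °C; 1 = growth at the plate median or of vehicle wells; lower values mean less growth of the strain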
condition: S. cerevisiae deletion strains, growth OD, locus YNR030W, strain Alg12, hits give low values
About 2,000 (36%) of roughly 5,500 compounds were called active. About 18% were inconclusive and are not listed. This is one part of the list.
Give the figure only, with no unit attached.

compound	normalized growth
COC(=O)C1=C(C)NC(C)=C(C(=O)OC)C1c1ccc(-c2ccsc2C(=O)OC)o1	1.02
O=C(c1ccc(-c2ccccc2)cc1)c1cc2cc([N+](=O)[O-])ccc2o1	1
Cc1ccc(-n2cccc2)c(NC(=S)Nc2ccc(Br)cc2OC(F)(F)F)c1	0.925
CCCn1c(=O)c(C#N)cn(-c2ccc(Cl)cc2)c1=O	0.99
CCOC(=O)Nc1ccsc1C(=O)OC	1.01

Consider CCCc1cnc(N2CCCN(C(=S)Nc3cccnc3)CC2)nc1 . Its measured normalized growth is 1.01

Consider COC(=O)c1sccc1-c1ccc(C(C)=O)o1 . Its measured normalized growth is 0.885

Consider CC(C)(C)S(=O)(=O)/C(C#N)=C/N1CCCCC1 . Its measured normalized growth is 1.02

Consider Cc1ccc(NC(=S)NCCO)c(C)c1 . Its measured normalized growth is 0.986

Consider CSC(=NC#N)N1CCN(c2ccc([N+](=O)[O-])cn2)CC1 . Its measured normalized growth is 0.954

Consider O=C1CCC(c2cccs2)=NN1 . Its measured normalized growth is 1

Consider CN1c2ccccc2C(=O)NC1c1ccc([N+](=O)[O-])s1 (stereo not drawn) . Its measured normalized growth is 0.988

Consider Nc1ccc(C(=O)/C(=C\c2cccc([N+](=O)[O-])c2)C(=O)c2ccc(-c3ccccc3)cc2)cc1 . Its measured normalized growth is 0.955
